Would you kindly list half-life at 0.5 μM for each of these compounds?
assay: Metabolic Stability Half-Life Panel, human liver microsomes; assay type: in vitro ADME; details: pH 7.4, human liver microsomes, 0.5 μM compound, NADPH, 45-minute time course, read-out: HLM (t1/2, min.)

I have this compound here, CC(F)(F)C[C@H](C(N)=O)[C@@H](CCC(F)(F)F)C(=O)N[C@H]1N=C(c2ccccc2)c2ccccc2N(CC2CC2)C1=O , and I need its recorded half-life at 0.5 μM.
≥ 1.12 h

Which value of half-life at 0.5 μM has been reported for NC(=O)[C@@H](CCCC(F)(F)F)[C@@H](CCC(F)(F)F)C(=O)N[C@H]1N=C(c2ccccc2)c2ccccc2N(c2ccccn2)C1=O in the records?
≥ 1.12 h

Reported half-life at 0.5 μM for COc1ccc(C2=N[C@H](NC(=O)[C@H](CCC(F)(F)F)[C@H](CCC(F)(F)F)C(N)=O)C(=O)N(CC3CC3)c3ccccc32)cc1 : what is it?
≥ 1.12 h

Sourced from patent US9242940B2
